- ASSAYED SYSTEM: MAP2K7 (Homo sapiens (Human), UniProt O14733)
- Sequence (O14733 whole entry): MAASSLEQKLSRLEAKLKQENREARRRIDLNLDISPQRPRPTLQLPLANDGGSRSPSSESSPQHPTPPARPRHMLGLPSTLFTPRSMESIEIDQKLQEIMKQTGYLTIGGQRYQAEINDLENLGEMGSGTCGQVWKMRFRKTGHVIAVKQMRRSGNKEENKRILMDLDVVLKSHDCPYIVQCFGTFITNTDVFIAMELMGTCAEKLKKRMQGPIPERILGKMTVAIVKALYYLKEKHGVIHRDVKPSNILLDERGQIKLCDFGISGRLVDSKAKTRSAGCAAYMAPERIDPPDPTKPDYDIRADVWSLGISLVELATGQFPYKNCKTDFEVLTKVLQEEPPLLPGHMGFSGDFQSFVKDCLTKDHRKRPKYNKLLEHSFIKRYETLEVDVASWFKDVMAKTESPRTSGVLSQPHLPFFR
- RUN DESCRIPTION: KiNativ assay
- Format: binding
- APPLIED CONDITIONS: H929 live cell, read-out: inhibition (10 μM)
Mark Condition not met for inhibition at 10 µM values under 10%, and Condition met for everything at or above.

>>> assigned_class("Nc1ncc(-c2cccc3ncsc23)cc1-c1ccc2c(c1)CCNC2=O")
"Condition met"
>>> assigned_class("CN(C1CC1)S(=O)(=O)c1ccc(-c2cnc(N)c(-c3ccc4c(c3)CCNC4=O)c2)c(F)c1")
"Condition not met"
>>> assigned_class("Nc1ncc(-c2ccc(NS(=O)(=O)C3CC3)cc2OC2CCCCC2)cc1-c1ccc2c(c1)CCNC2=O")
"Condition not met"
>>> assigned_class("Nc1ncc(-c2ccc(NS(=O)(=O)C3CC3)cc2F)cc1-c1ccc2c(c1)CCNC2=O")
"Condition met"
>>> assigned_class("Nc1ncc(-c2cccc([N+](=O)[O-])c2F)cc1-c1ccc2c(c1)CCNC2=O")
"Condition met"
>>> assigned_class("COc1cc(NS(=O)(=O)C2CC2)ccc1-c1cnc(N)c(-c2ccc3c(c2)CCNC3=O)c1")
"Condition met"
